- Read-out: Tissue Factor, F3 (gene 2152)
- experimental details: BSK_LPS_TissueFactor: BioMAP Diversity Plus: LPS Assay for Tissue Factor Biomarker Activity (AID 2283084)
- particulars: primary human HUVEC with PBMC; actives raise or lower the signal
Active and inactive are the calls of the source. How the source made its calls: active means hit-call score of the fitted dose curve at least 0.9, where 1 is the maximum; inactive means score below 0.9.
Outcome codes: T for active, F for inactive

>>> answer_label("CC(C)(C)c1ccc(O)c(O)c1")
"T"
>>> answer_label("O=C1NS(=O)(=O)c2ccccc21")
"F"
>>> answer_label("COc1cccc(O)c1")
"F"
>>> answer_label("O=C(O)CCC(F)(F)C(F)(F)C(F)(F)C(F)(F)C(F)(F)C(F)(F)F")
"F"
>>> answer_label("CC[N+](CC)(CC)Cc1ccccc1")
"F"
>>> answer_label("CS(=O)(=O)c1ccc([C@@H](CC2CCCC2)C(=O)Nc2cnccn2)cc1Cl")
"F"
>>> answer_label("N=C(N)c1ccc(OCCCCCOc2ccc(C(=N)N)cc2)cc1")
"F"
>>> answer_label("O=C1c2ccc(O)c(O)c2C(=O)c2c(O)ccc(O)c21")
"F"
>>> answer_label("O=P(O)(O)CCC(F)(F)C(F)(F)C(F)(F)C(F)(F)C(F)(F)C(F)(F)C(F)(F)C(F)(F)F")
"F"
>>> answer_label("O=C(CCCN1CCC(O)(c2ccc(Cl)cc2)CC1)c1ccc(F)cc1")
"T"
>>> answer_label("COC1=CC(=O)C[C@@H](C)[C@]12Oc1c(Cl)c(OC)cc(OC)c1C2=O")
"F"

----------
- Read-out: Human Leukocyte Antigen - DR isotype (HLADR), HLA-DRA (gene 3122)
- experimental details: BSK_BE3C_HLADR: BioMAP Diversity Plus: BE3C Assay for Human Leukocyte Antigen - DR isotype (HLADR) Biomarker Activity (AID 2283032)
- particulars: primary human bronchial epithelial cells; actives raise or lower the signal
- Protocol: BSK_BE3C is a cell-based, multiplexed-readout assay that uses bronchial epithelial cell, a human lung primary cell, with measurements taken at 24 hours after chemical dosing in a 96-well plate.BSK_BE3C_HLADR is an assay component measured in the BSK_BE3C assay. It measures HLA-DR antibody related to regulation of gene expression using ELISA technology.Data from the assay component BSK_BE3C_HLADR was analyzed into 1 assay endpoint. […]
Active and inactive are the calls of the source. Rule for the calls: active = hit-call score of the fitted dose curve at least 0.9, where 1 is the maximum; inactive = score below 0.9.
Outcome codes: active, inactive

>>> answer_label("COc1cc(OC)nc(NC(=O)NS(=O)(=O)Nc2ccccc2C(=O)N(C)C)n1")
"inactive"
>>> answer_label("O=C(CCCN1CCC(O)(c2ccc(Cl)cc2)CC1)c1ccc(F)cc1")
"inactive"
>>> answer_label("O=P(O)(O)CCC(F)(F)C(F)(F)C(F)(F)C(F)(F)C(F)(F)C(F)(F)F")
"inactive"
>>> answer_label("Oc1cc2ccccc2cc1O")
"inactive"
>>> answer_label("Cc1[nH]nc2c1N=C(c1ccccc1Cl)c1cc([N+](=O)[O-])ccc1N2")
"active"
>>> answer_label("CCCCC(CC)C(=O)O (stereo not drawn)")
"inactive"
>>> answer_label("OCCN1CN(CCO)CN(CCO)C1")
"active"
>>> answer_label("O=C1c2ccc(O)c(O)c2C(=O)c2c(O)ccc(O)c21")
"inactive"

----------
- experimental details: CEETOX_H295R_OHPROG: CeeTox H295R High-throughput Steroidogenesis Assay for OH-Progesterone (OHPROG) (AID 2283435)
- particulars: actives raise or lower the signal
The source made the active and inactive calls. The calls were made as follows: active = hit-call score of the fitted dose curve at least 0.9, where 1 is the maximum; inactive = score below 0.9.
Outcome codes: yes (1) = active, no (0) = inactive

>>> answer_label("Cc1cccc2c1ccc1ccccc12")
"no (0)"
>>> answer_label("Clc1ccc(Nc2nnc(Cc3ccncc3)c3ccccc23)cc1")
"no (0)"
>>> answer_label("CC(C)(C)c1ccc(O)c(O)c1")
"no (0)"
>>> answer_label("CCCCCC(C)OC(=O)COc1ccc(Cl)c2cccnc12 (configuration not stated)")
"no (0)"
>>> answer_label("O=C(NCc1ncc(C(F)(F)F)cc1Cl)c1c(Cl)cccc1Cl")
"yes (1)"
>>> answer_label("CCCCCc1ccc(O)cc1")
"no (0)"
>>> answer_label("CC(C)CCOCCC(C)C")
"no (0)"

# credit: PubChem BioAssay (EPA / NIEHS)
